assay-procedure: Pharmacokinetic study in rats (IV and PO, plasma)
Assay type: in vivo
run-parameters: Sprague-Dawley, rat, SD rats, IV, 2 mg/kg
endpoint-label: clearance (mL/min/kg)
Numbers only, in mL/min/kg.

- Cn1c(N2CCOCC2)nc2cc(NN=C(C#N)C#N)ccc21 [Compound 6]: 19.5

Field: next compound
clearance lookup needed for CC1COCCN1c1nc2ccc(NN=C(C#N)C#N)cc2o1 (centres unmarked) [Compound 16] , thanks.
8.33

----------
tgt: CYP3A4 (Homo sapiens, UniProt P08684)
Construct: human liver microsomes (0.25 mg/mL); from tissue; host or cells: human liver microsomes
Sequence (P08684 whole entry): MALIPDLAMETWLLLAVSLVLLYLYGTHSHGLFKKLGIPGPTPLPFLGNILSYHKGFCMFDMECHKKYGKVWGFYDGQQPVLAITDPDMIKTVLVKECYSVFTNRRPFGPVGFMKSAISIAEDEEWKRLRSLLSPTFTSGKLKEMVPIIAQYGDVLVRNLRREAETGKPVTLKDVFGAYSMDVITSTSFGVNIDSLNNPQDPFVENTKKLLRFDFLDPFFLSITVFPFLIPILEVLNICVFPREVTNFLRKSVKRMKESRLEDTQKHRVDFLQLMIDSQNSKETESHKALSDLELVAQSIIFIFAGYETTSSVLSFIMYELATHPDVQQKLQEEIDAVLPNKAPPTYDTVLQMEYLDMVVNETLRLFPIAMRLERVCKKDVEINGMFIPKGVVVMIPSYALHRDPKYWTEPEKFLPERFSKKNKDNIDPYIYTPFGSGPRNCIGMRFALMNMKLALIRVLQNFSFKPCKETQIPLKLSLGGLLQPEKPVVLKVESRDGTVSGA
assay-procedure: CYP isoenzyme activity inhibition in human liver microsomes, CYP3A4
Type: in vitro ADME
run-parameters: 10 µM compound; human liver microsomes 0.25 mg/mL; relative to control without compound
So I've got a bunch of molecules here, and I need their CYP3A4 (% activity) values.
Answers are plain numbers, in % activity.

Please review the following examples before continuing.
• Cn1c(N2CCOCC2)nc2ccc(NN=C(C#N)C#N)cc21 = 86.1
• N#CC(C#N)=NNc1ccc2nc(NC(=O)N3CCOCC3)sc2c1 = 86.7
• COC1CCN(c2nc3ccc(NN=C(C#N)C#N)cc3o2)CC1 = 87.1

Go through the list and state CYP3A4 (% activity) for each entry.
1. CC(C)N1CCN(c2nc3ccc(NN=C(C#N)C#N)cc3s2)CC1
2. N#CC(C#N)=NNc1ccc2nc(N3CCOCC3)oc2c1
3. CCn1c(N2CCOCC2)nc2cc(NN=C(C#N)C#N)ccc21
4. N#CC(C#N)=NNc1ccc2nc(N3CCNCC3)oc2c1
5. COC1CCN(c2nc3ccc(NN=C(C#N)C#N)cc3s2)CC1
6. CC(C)N1CCN(c2nc3ccc(NN=C(C#N)C#N)cc3o2)CC1
7. CN1CCN(c2nc3ccc(NN=C(C#N)C#N)cc3o2)CC1

59.8
94
75.4
91.5
66.1
87.8
96.8

----------
tgt: Tau (Homo sapiens)
Construct: BiFC fluorescent-protein fragments (two complementary halves on two tau copies); expressed in transfected cells
assay-procedure: Tau aggregation inhibition in Tau-BiFC cell model (Forskolin-induced)
Type: cell-based
run-parameters: Tau-BiFC cell line; Forskolin 30 µM; 48 hours; 0.03-30 µM; read-out: Tau aggregation inhibitory effect IC50
Procedure: To screen for new tau aggregation inhibitors, a Tau-BiFC cell model that facilitates observation of tau oligomer formation in living cells was used. […] After 48 hours, nuclei within cells were stained using Hoechst (treatment concentration 2 µg/mL), and BiFC fluorescence intensity was automatically quantified using Operetta (Perkin Elmer) to count the stained nuclei in each well from the entire plate. […]
endpoint-label: IC50
# do not omit the unit; it follows the number

- C[C@@H]1CN(c2nc3ccc(NN=C(C#N)C#N)cc3s2)C[C@H](C)N1C(=O)OC(C)(C)C [Compound 29]: 36 nM

In the following, a different molecule is considered.
Need IC50 of CN(C)c1ccc(-c2nc3ccc(NN=C(C#N)C#N)cc3s2)cc1 [Comparative compound 4, reference compound] , thanks.
3100 nM

----------
Assign Cell viability (% @10µM) to each entry below.
Test system: Tau-BiFC cells
assay-procedure: Cell viability (stained nuclei count) in Tau-BiFC cells
Assay type: cell-based
run-parameters: @10 µM; Tau-BiFC cell line; Forskolin-only group = 100%
Give bare numbers, in %.

• CC1CN(c2nc3ccc(NN=C(C#N)C#N)cc3s2)CCO1 (centres unmarked) = 102

Could I get Cell viability (% @10µM) for every one of these entries?
1. N#CC(C#N)=NNc1ccc2nc(N3CCNCC3)sc2c1
2. N#CC(C#N)=NNc1ccc2nc(-c3ccccc3)sc2c1 [Comparative compound 2, reference compound]

1. 95
2. 65

Working through the 2 compounds below one at a time, give Cell viability (% @10µM) for each.
1. COC1CCN(c2nc3ccc(NN=C(C#N)C#N)cc3o2)CC1
2. N#CC(C#N)=NNc1ccc2oc(N3CCOCC3)nc2c1

[100, 100]

----------
assay-procedure: Liver microsomal stability, mouse
Format: in vitro ADME
run-parameters: 1 µM compound; 0.5 mg/mL microsomes; NADPH; 30 minutes at 37°C
Protocol: Liver microsomal stability by the compounds prepared according to Examples 1 to 46 was confirmed. […] The amount of remaining substrate through the reaction was analyzed using a Shimadzu Nexera XR system and TSQ vantage (Thermo). […] The calculated results are shown in Table 5 below: Liver microsomal stability data of novel compounds from […] (human, rat, and mouse).
endpoint-label: Mouse microsomes (% remaining)

Consider the reported Mouse microsomes (% remaining) for these compounds:
- Cn1c(N2C3CCC2COC3)nc2cc(NN=C(C#N)C#N)ccc21: 95.1 % remaining
- N#CC(C#N)=NNc1ccc2nc(N3CCOCC3)oc2c1: 98.5 % remaining
- CC(C)N1CCN(c2nc3ccc(NN=C(C#N)C#N)cc3o2)CC1: 81.8 % remaining
- CC1COCCN1c1nc2ccc(NN=C(C#N)C#N)cc2s1 (centres unmarked): 84.8 % remaining

Okay, now this compound:
For `CCn1c(N2CCOCC2)nc2ccc(NN=C(C#N)C#N)cc21` , what is its reported Mouse microsomes (% remaining)?
92.3 % remaining

----------
tgt: CYP3A4 (Homo sapiens)
Construct: human liver microsomes (0.25 mg/mL); from tissue; host or cells: human liver microsomes
assay-procedure: CYP isoenzyme activity inhibition in human liver microsomes, CYP3A4
Assay type: in vitro ADME
run-parameters: 10 µM compound; human liver microsomes 0.25 mg/mL; relative to control without compound
Give CYP3A4 (% activity) for every item shown.
Answers are plain numbers, in % activity.

Reference set (2 entries):
• CC1CN(c2nc3ccc(NN=C(C#N)C#N)cc3s2)CCO1 (centres unmarked) [Compound 12] = 78.9
• N#CC(C#N)=NNc1ccc2nc(N3C4CCC3COC4)sc2c1 [Compound 11] = 78.4

Please report CYP3A4 (% activity) for every entry that follows.
1. N#CC(C#N)=NNc1ccc2nc(N3CC[C@@H](F)C3)oc2c1 [Compound 41]
2. CC(=O)N1CCN(c2nc3ccc(NN=C(C#N)C#N)cc3o2)CC1 [Compound 31]
3. CC1COCCN1c1nc2ccc(NN=C(C#N)C#N)cc2s1 (centres unmarked) [Compound 13]
4. CC1COCCN1c1nc2ccc(NN=C(C#N)C#N)cc2o1 (centres unmarked) [Compound 16]
5. CC1CN(c2nc3ccc(NN=C(C#N)C#N)cc3s2)CC(C)O1 (centres unmarked) [Compound 10]
6. N#CC(C#N)=NNc1ccc2nc(N3CC4CCC(C3)O4)oc2c1 [Compound 26]
7. N#CC(C#N)=NNc1ccc2nc(N3CC4CCC(C3)O4)sc2c1 [Compound 23]
8. CN1CCN(c2nc3ccc(NN=C(C#N)C#N)cc3s2)CC1 [Compound 8]

1: 86.5; 2: 88.3; 3: 84.8; 4: 96.7; 5: 74.5; 6: 81.3; 7: 71.7; 8: 95

----------
Answer each item with its documented CYP2C9 (% activity).
tgt: CYP2C9 (Homo sapiens)
Construct: human liver microsomes (0.25 mg/mL); from tissue; host or cells: human liver microsomes
Sequence (P11712 whole entry): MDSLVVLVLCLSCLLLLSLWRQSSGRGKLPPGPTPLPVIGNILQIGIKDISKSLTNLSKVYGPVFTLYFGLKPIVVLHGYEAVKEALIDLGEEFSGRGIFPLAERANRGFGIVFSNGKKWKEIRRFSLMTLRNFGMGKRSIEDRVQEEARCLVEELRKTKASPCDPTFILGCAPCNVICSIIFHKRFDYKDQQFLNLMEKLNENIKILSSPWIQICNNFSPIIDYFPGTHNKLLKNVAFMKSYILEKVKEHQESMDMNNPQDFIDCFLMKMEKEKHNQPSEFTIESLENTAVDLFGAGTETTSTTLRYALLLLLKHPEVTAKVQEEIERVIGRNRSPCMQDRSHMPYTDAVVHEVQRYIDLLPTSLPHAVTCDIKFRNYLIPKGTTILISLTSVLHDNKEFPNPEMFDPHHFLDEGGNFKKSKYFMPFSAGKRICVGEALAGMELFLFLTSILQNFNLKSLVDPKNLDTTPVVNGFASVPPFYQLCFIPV
assay-procedure: CYP isoenzyme activity inhibition in human liver microsomes, CYP2C9
Assay type: in vitro ADME
run-parameters: 10 µM compound; human liver microsomes 0.25 mg/mL; relative to control without compound
Give bare numbers, in % activity.

Some compounds with recorded CYP2C9 (% activity):
- COC1CCN(c2nc3ccc(NN=C(C#N)C#N)cc3s2)CC1: 60.7
- CC1CN(c2nc3ccc(NN=C(C#N)C#N)cc3s2)CC(C)O1 (centres unmarked): 76.8
- CC(C)N1CCN(c2nc3ccc(NN=C(C#N)C#N)cc3o2)CC1: 48.5
- CC1COCCN1c1nc2ccc(NN=C(C#N)C#N)cc2s1 (centres unmarked): 75

Proceed to the following item.
Fill in the recorded CYP2C9 (% activity) for this compound, with CYP2C9 (Homo sapiens) as test system: `Cn1c(N2C3CCC2COC3)nc2ccc(NN=C(C#N)C#N)cc21`
80.8

----------
Please provide measured IC50 for the entries that follow.
tgt: Tau (Homo sapiens, UniProt P10636)
Construct: BiFC fluorescent-protein fragments (two complementary halves on two tau copies); expressed in transfected cells
Sequence (P10636 1-441 isoform P10636-8): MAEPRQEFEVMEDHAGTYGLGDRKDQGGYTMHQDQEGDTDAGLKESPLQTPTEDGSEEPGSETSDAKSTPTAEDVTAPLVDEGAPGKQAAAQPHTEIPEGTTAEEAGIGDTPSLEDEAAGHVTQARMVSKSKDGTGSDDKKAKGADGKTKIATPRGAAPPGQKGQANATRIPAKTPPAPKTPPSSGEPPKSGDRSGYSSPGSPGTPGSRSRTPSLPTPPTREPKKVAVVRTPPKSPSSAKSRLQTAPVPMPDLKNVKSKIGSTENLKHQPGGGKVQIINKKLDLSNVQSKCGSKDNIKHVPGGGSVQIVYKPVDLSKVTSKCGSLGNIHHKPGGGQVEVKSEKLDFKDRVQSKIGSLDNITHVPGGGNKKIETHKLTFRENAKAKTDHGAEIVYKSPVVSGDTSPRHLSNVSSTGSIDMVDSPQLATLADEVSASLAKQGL
assay-procedure: Tau aggregation inhibition in Tau-BiFC cell model (Forskolin-induced)
Type: cell-based
Protocol: To screen for new tau aggregation inhibitors, a Tau-BiFC cell model that facilitates observation of tau oligomer formation in living cells was used. […] After 48 hours, nuclei within cells were stained using Hoechst (treatment concentration 2 µg/mL), and BiFC fluorescence intensity was automatically quantified using Operetta (Perkin Elmer) to count the stained nuclei in each well from the entire plate. […]
Answers are plain numbers, in nM.

• CN(N=C(C#N)C#N)c1ccc2nc(N3C4CCC3COC4)sc2c1 [Compound 36] = 136
• Cn1c(N2CCOCC2)nc2ccc(NN=C(C#N)C#N)cc21 [Compound 5] = 32
• CC1CN(C(=O)Nc2nc3ccc(NN=C(C#N)C#N)cc3s2)CC(C)O1 (centres unmarked) [Compound 39] = 44

Here are 2 molecules. What values of IC50 were reported for them?
1. CC1COCCN1c1nc2ccc(NN=C(C#N)C#N)cc2s1 (centres unmarked) [Compound 13]
2. N#CC(C#N)=NNc1ccc2nc(-c3cccs3)sc2c1 [Comparative compound 5, reference compound]

1. 20
2. 7300
